# METHOD DESCRIPTION: Acute toxicity, oral
# RUN CONDITIONS: mouse, in vivo, souris, per os, read-out: Dose léthale 50 approchée mg/kg per os
OBSERVATION TYPE: LD50 (mg/kg)

[
  {
    "MOLECULE": "O=C(c1ccc(O)cc1)C1CCN(CC2COc3ccccc3O2)CC1 (centres unmarked) [Exemple 7]",
    "MEASUREMENT UNIT": "mg/kg",
    "MODIFIER SIGN": "=",
    "VALUE": 440
  },
  {
    "MOLECULE": "O=C(c1ccc(F)cc1)C1CCN(CC2COc3ccccc3O2)CC1 (centres unmarked) [Exemple 2]",
    "MEASUREMENT UNIT": "mg/kg",
    "MODIFIER SIGN": "=",
    "VALUE": 880
  },
  {
    "MOLECULE": "O=C(Oc1ccc(C(=O)C2CCN(CC3COc4ccccc4O3)CC2)cc1)c1cccnc1 (centres unmarked) [Exemple 8]",
    "MEASUREMENT UNIT": "mg/kg",
    "MODIFIER SIGN": ">",
    "VALUE": 3200
  },
  {
    "MOLECULE": "O=C(c1ccc(Cl)cc1)C1CCN(CC2COc3ccccc3O2)CC1 (centres unmarked) [Exemple 6]",
    "MEASUREMENT UNIT": "mg/kg",
    "MODIFIER SIGN": "=",
    "VALUE": 880
  },
  {
    "MOLECULE": "COc1ccc(C(=O)C2CCN(CC3COc4ccccc4O3)CC2)cc1 (centres unmarked) [Exemple 4]",
    "MEASUREMENT UNIT": "mg/kg",
    "MODIFIER SIGN": "=",
    "VALUE": 364
  },
  {
    "MOLECULE": "O=C(c1ccccc1)C1CCN(CC2COc3ccccc3O2)CC1 (centres unmarked) [Exemple 9]",
    "MEASUREMENT UNIT": "mg/kg",
    "MODIFIER SIGN": "=",
    "VALUE": 2400
  },
  {
    "MOLECULE": "CCc1ccc(C(=O)C2CCN(CC3COc4ccccc4O3)CC2)cc1 (centres unmarked) [Exemple 11]",
    "MEASUREMENT UNIT": "mg/kg",
    "MODIFIER SIGN": "=",
    "VALUE": 1200
  },
  {
    "MOLECULE": "Cc1ccc(C(=O)C2CCN(CC3COc4ccccc4O3)CC2)cc1 (centres unmarked) [Exemple 10]",
    "MEASUREMENT UNIT": "mg/kg",
    "MODIFIER SIGN": "=",
    "VALUE": 1460
  }
]
